biological target: RNA-directed RNA polymerase (Hepacivirus hominis); test: Inhibition of HCV 1b BK six His-tagged C-terminal truncated 544 amino acid NS5B RNA dependent RNA polymerase; design: species or system Hepatitis C virus subtype 1b
Sequence (O39930 whole entry, the tested form may be a part): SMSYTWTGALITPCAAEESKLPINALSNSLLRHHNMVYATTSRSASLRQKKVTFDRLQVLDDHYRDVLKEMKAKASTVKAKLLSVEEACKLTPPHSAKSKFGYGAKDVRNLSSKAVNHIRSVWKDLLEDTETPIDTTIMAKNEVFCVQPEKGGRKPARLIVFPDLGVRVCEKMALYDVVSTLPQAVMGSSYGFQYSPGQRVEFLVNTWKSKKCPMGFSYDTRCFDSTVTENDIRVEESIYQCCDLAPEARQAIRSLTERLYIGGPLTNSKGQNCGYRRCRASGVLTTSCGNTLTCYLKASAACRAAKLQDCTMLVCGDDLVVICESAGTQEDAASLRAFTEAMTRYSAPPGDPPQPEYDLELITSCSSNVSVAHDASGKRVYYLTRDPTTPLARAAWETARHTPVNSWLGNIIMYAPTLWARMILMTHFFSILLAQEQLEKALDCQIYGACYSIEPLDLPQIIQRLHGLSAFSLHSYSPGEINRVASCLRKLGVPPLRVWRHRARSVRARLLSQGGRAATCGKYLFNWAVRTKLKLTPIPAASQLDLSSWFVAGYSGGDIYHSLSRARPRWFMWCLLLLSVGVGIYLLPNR
The following molecules are listed with their measured IC50 values.
Give the quantity in nM, number only.

Illustrative cases are given below, each with its answer.
smilesRepresentation	experimentalSystem	displayUnit	IC50
CN(C)C(=O)c1ccc(-c2ccc(Cl)cc2)c(COc2ccc(-c3nc4cc(C(=O)O)ccc4n3C3CCCCC3)c(F)c2)c1	RNA-directed RNA polymerase (Hepacivirus hominis)	nM	12
Cc1nc(COc2ccc(-c3nc4cc(C(=O)O)ccc4n3C3CCCCC3)cc2)c(-c2ccc(Cl)cc2)s1	RNA-directed RNA polymerase (Hepacivirus hominis)	nM	170
CC(=O)Nc1ccc(-c2ccc(Cl)cc2)c(COc2ccc(-c3nc4cc(C(=O)O)ccc4n3C3CCCCC3)c(F)c2)c1	RNA-directed RNA polymerase (Hepacivirus hominis)	nM	14
NS(=O)(=O)c1ccc(-c2ccc(Cl)cc2)c(COc2ccc(-c3nc4cc(C(=O)O)ccc4n3C3CCCCC3)cc2)c1	RNA-directed RNA polymerase (Hepacivirus hominis)	nM	16
CC(=O)Nc1ccc(-c2ccc(Cl)cc2)c(COc2ccc(-c3nc4cc(C(=O)O)ccc4n3C3CCCCC3)cc2)c1	RNA-directed RNA polymerase (Hepacivirus hominis)	nM	22
CC(C)C(=O)N(C)c1ccc(-c2ccc(Cl)cc2)c(COc2ccc(-c3nc4cc(C(=O)O)ccc4n3C3CCCCC3)c(F)c2)c1	RNA-directed RNA polymerase (Hepacivirus hominis)	nM	32

Here is the next item to consider.
With RNA-directed RNA polymerase (Hepacivirus hominis) as the test system, provide measured IC50 for this molecule: `NC(=O)c1ccc(-c2ccc(Cl)cc2)c(COc2ccc(-c3nc4cc(C(=O)O)ccc4n3C3CCCCC3)cc2)c1`
13
